- assayed_system: 15N-labeled NAD binding domain of PHGDH (Homo sapiens, UniProt O43175)
- Sequence (O43175 93-298 limits assumed): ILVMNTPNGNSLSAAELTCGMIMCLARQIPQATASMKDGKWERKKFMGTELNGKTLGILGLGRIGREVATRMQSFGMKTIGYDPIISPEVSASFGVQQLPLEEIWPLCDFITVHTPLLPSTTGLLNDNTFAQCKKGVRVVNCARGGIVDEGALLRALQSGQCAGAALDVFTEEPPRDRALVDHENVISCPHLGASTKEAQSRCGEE
- procedure_details: 2D NMR binding assay (1H15N-TROSY-HSQC chemical shift titration)
- run_conditions: read-out: Kd (chemical shift change versus compound concentration)
property_name: pKd
Give bare numbers, as −log10 of the molar value.

For NC(=O)c1cc2cc(F)ccc2[nH]1 [Compound 2, 5-fluoroindole-2-carboxamide] the molecule record lists pKd as 3.01

* * *

Answer each item with its documented pKd.
- assayed_system: InhA.NAD+ (Mycobacterium tuberculosis, UniProt P9WGR1)
- procedure_details: SPR profiling of DEL screening hits, in the presence of 2 mM NAD+
- Type: binding
Answers are plain numbers, as −log10 of the molar value.

{"columns": ["compound", "pKd"],
 "data": [
  ["CNC(=O)C1CC(NC(=O)C(NC(=O)c2ccc(Cn3cccn3)cc2)[C@@H](C)OC(C)(C)C)CN1C(=O)c1ccccc1 (stereo partly shown)", 4.31],
  ["Cc1c(CC(=O)NC2CCC(CC(=O)N3CCN(CC(=O)CN)C(=O)C3Cc3ccccc3)CC2)sc2ccccc12 (stereo not shown)", 4.87],
  ["CNC(=O)CN(Cc1ccc(C)cc1)C(=O)C[C@H]1CC[C@H](CC(=O)c2nnn(Cc3ccccc3)c2C)CC1", 4.33]
]}

// below: pKd requested for another compound
For CCCc1cc(C(=O)N2CCC(C(=O)NC(CC(=O)NC)c3cccc(C(F)(F)F)c3)(c3ccc(Br)cc3)CC2)n(C)n1 (stereo not shown) the compound record lists pKd as 6.52

* * *

- assayed_system: full length PHGDH (Homo sapiens)
- Sequence (O43175 whole entry): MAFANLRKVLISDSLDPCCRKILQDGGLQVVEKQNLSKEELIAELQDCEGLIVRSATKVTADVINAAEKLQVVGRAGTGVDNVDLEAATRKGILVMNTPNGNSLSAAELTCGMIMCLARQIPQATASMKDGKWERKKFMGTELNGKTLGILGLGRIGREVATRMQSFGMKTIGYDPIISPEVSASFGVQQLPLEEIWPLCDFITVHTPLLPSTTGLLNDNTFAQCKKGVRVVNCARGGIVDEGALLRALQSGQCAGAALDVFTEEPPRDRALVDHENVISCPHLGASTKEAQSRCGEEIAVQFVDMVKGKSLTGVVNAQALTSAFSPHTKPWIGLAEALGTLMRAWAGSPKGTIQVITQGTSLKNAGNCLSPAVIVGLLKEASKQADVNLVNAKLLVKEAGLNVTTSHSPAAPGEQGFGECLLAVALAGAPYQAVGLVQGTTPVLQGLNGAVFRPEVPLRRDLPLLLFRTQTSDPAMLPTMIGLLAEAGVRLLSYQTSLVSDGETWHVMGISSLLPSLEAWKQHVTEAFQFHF
- procedure_details: ITC titration
- Assay type: binding
property_name: Kd

For NC(=O)C1=CN([C@@H]2O[C@H](COP(=O)(O)OP(=O)(O)OC[C@H]3O[C@@H](n4cnc5c(N)ncnc54)[C@H](O)[C@@H]3O)[C@@H](O)[C@H]2O)C=CC1 the compound record lists Kd as 330 nM

* * *

Answer each item with its documented Kd.
- assayed_system: InhA.NADH (Mycobacterium tuberculosis)
- Sequence (P9WGR1 whole entry, looked up): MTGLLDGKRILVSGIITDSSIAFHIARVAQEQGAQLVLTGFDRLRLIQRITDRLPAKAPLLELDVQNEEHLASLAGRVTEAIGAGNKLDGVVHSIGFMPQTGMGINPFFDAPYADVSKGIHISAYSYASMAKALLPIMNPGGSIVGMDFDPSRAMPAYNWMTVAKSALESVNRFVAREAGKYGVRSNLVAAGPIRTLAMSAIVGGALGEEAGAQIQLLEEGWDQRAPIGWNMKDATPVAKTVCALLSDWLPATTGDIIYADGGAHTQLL
- procedure_details: SPR profiling of DEL screening hits, in the presence of 100 μM NADH
Numbers only, in nM.

Worked cases, answers included:
{"columns": ["compound", "assayed_system", "Kd (nM)"],
 "data": [
  ["CNC(=O)C1CCCN1C(=O)CC1CCC(NC(=O)C2CC(c3ccccc3)CN2)CC1 (stereo not shown) [Compound 12]", "InhA.NADH (Mycobacterium tuberculosis)", 6300],
  ["CNC(=O)C1CC(NC(=O)C(NC(=O)c2ccc(Cn3cccn3)cc2)[C@@H](C)OC(C)(C)C)CN1C(=O)c1ccccc1 (stereo partly shown) [Compound 10]", "InhA.NADH (Mycobacterium tuberculosis)", 60],
  ["CNC(=O)c1cnc(NC2CCN(c3ccccn3)CC2)c(NCc2ccc(F)c(Oc3ccccc3)c2)c1 [Compound 8]", "InhA.NADH (Mycobacterium tuberculosis)", 300]
]}

Give Kd for each of the items listed below.
1. CCCc1cc(C(=O)N2CCC(C(=O)NC(CC(=O)NC)c3cccc(C(F)(F)F)c3)(c3ccc(Br)cc3)CC2)n(C)n1 (stereo not shown) [Compound 11]
2. Cc1c(CC(=O)NC2CCC(CC(=O)N3CCN(CC(=O)CN)C(=O)C3Cc3ccccc3)CC2)sc2ccccc12 (stereo not shown) [Compound 6]
3. CNC(=O)CN(C(=O)Cc1ccc(-n2cccn2)cc1)C1CCN(c2ccccn2)CC1 [Compound 9]
4. CNC(=O)CN(Cc1ccc(C)cc1)C(=O)C[C@H]1CC[C@H](CC(=O)c2nnn(Cc3ccccc3)c2C)CC1 [Compound 7]

1: 5000; 2: 300; 3: 36800; 4: 90

* * *

- assayed_system: NAD binding domain of PHGDH (Homo sapiens)
- Sequence (O43175 93-298 limits assumed): as the sequence (O43175 93-298 limits assumed) above
- procedure_details: SPR titration, steady state fit
property_name: pKd
Answers are plain numbers, as −log10 of the molar value.

For NC(=O)C1=CN([C@@H]2O[C@H](COP(=O)(O)OP(=O)(O)OC[C@H]3O[C@@H](n4cnc5c(N)ncnc54)[C@H](O)[C@@H]3O)[C@@H](O)[C@H]2O)C=CC1 the molecule record lists pKd as 5.17

* * *

Answer each item with its documented pKd.
- assayed_system: InhA.NAD+ (Mycobacterium tuberculosis, UniProt P9WGR1)
- procedure_details: SPR profiling of DEL screening hits, in the presence of 2 mM NAD+
pKd: −log10 of the molar value.

Worked cases, answers included:
{"columns": ["compound", "assayed_system", "experimental_result"],
 "data": [
  ["CNC(=O)C1CCCN1C(=O)CC1CCC(NC(=O)C2CC(c3ccccc3)CN2)CC1 (stereo not drawn) [Compound 12]", "InhA.NAD+ (Mycobacterium tuberculosis, UniProt P9WGR1)", "< 4.00"],
  ["CNC(=O)CN(C(=O)Cc1ccc(-n2cccn2)cc1)C1CCN(c2ccccn2)CC1 [Compound 9]", "InhA.NAD+ (Mycobacterium tuberculosis, UniProt P9WGR1)", "< 4.00"]
]}

// below: pKd requested for another compound
For CNC(=O)c1cnc(NC2CCN(c3ccccn3)CC2)c(NCc2ccc(F)c(Oc3ccccc3)c2)c1 [Compound 8] the compound record lists pKd as < 4.00
